Test: In-vivo pharmacokinetic study in rats
Design: species or system SD female rats
Settings: female, SD, rat, plasma, po, 5 mg/kg, intragastric administration
OBSERVED_PROPERTY: half-life

[[record]]
cpd_smiles = "COc1nc(Cn2cccn2)cc2onc(NS(=O)(=O)c3cccc4ccoc34)c12"
observed_property = "half-life"
recorded_result = "≤ 10 h"

[[record]]
cpd_smiles = "COc1cc2c(cc1S(=O)(=O)Nc1noc3cc(Cn4cccn4)nc(OC)c13)CCCC2"
observed_property = "half-life"
recorded_result = "≤ 10 h"

[[record]]
cpd_smiles = "COc1nc(Cn2cccn2)cc2onc(NS(=O)(=O)c3cccc4c3ccn4C)c12"
observed_property = "half-life"
recorded_result = "24.6 h"

[[record]]
cpd_smiles = "COc1cc2c(c(OC)c1S(=O)(=O)Nc1noc3cc(Cn4cccn4)nc(OC)c13)CCC2"
observed_property = "half-life"
recorded_result = "≤ 10 h"

